// provenance: paper PMC6146392

MEASURED ON: S.c. Grx3 (residues 36-285, Trx-like and Grx-like domains) (S. cerevisiae)
PROCEDURE SUMMARY: ITC
PARAMETER MEASURED: pKd
pKd here: minus log base 10 of the concentration, concentration in moles per litre.

Given the entry human BOLA3 (residues 25-107, lacking the mitochondrial targeting sequence) (natural protein, UniProt Q53S33 25-107, looked up) MFATQTEGELRVTQILKEKFPRATAIKVTDISGGCGAMYEIKIESEEFKEKRTVQQHQMVNQALKEEIKEMHGLRIFTSVPKR , report its measured pKd.
5.17
